- Target Or System: human GLP-1 receptor (human, UniProt P43220 24-463)
- Method Description: cell-based or functional assay
Please respond with criterion met when measured cAMP EC50 is strictly beneath 0.2 nM, and with criterion not met in all other cases.

Lab log: compare recorded cAMP EC50 with 0.2 nM; is it strictly lower for IP260 (Fc fusion) YSEGTFTSDYSKLLEEEAVQLFIEWLVKGPGGGGGSGGGGSGGGGSGGGGSATHTCPPCPAPEF ?
criterion not met

Record IP290 (Fc fusion) YSEGTFTSDYSKLLEEEAVRLFIEWLVKGPGGGGGGGGGGGGGGGGGGGGACPPC : is its cAMP EC50 strictly below 0.2 nM?
criterion met

cAMP EC50 under 0.2 nM? Item: IP211 (Fc fusion) YSEGTFTSDYSSYMEEEAVRLFIEWLVKGPAAAGGSGSTASSGSGSATGGGGAATHTCPPCPAPEF
criterion not met

Threshold test, cAMP EC50 < 0.2 nM: IP259 (Fc fusion) YSEGTFTSDYSKLLEKEAVRLFIEWLVKGPGGGGGSGGGGSGGGGSGGGGSATHTCPPCPAPEF
criterion met

For this binder, is cAMP EC50 lower than 0.2 nM? IP210 (Fc fusion) YSEGTFTSDLSKLLEEEAVRLFIEWLVKGPAAAGGSGSTASSGSGSATGGGGAATHTCPPCPAPEF
criterion met
